tested on: Male Sprague Dawley rats, gastric hemorrhagic lesion; assay: rat gastric lesion test; conditions: rat fasted 24 hours, oral gavage, lesion score (summed length, mm) three hours after dosing; ratio relative to parent NSAID (Naproxen = 1)
Tick Condition met if Relative Activity Gastric Lesion is 0.1 or greater. Tick Condition not met if Relative Activity Gastric Lesion is less than 0.1.

For this compound, is measured Relative Activity Gastric Lesion 0.1 or higher? COc1ccc2cc([C@H](C)C(=O)Oc3ccc(C(=O)OCCO[N+](=O)[O-])cc3)ccc2c1
Condition not met

###

test system: Male Sprague Dawley rats, gastric hemorrhagic lesion; test: rat gastric lesion test; settings: rat fasted 24 hours, oral gavage, lesion score (summed length, mm) three hours after dosing; ratio relative to parent NSAID (Naproxen = 1)
Each record is given Fulfilled if its reported Relative Activity Gastric Lesion is strictly below 0.2. Records at or above 0.2 are given Not fulfilled.

As a guide, the following entries are already answered.
{"compound": "COc1ccc2cc([C@H](C)C(=O)OCCOc3ccc(OCCO[N+](=O)[O-])cc3)ccc2c1", "label": "Fulfilled"}
{"compound": "CCN(CCO[N+](=O)[O-])C(=O)COC(=O)[C@@H](C)c1ccc2cc(OC)ccc2c1", "label": "Not fulfilled"}
{"compound": "COc1ccc2cc([C@H](C)C(=O)OCCSCCO[N+](=O)[O-])ccc2c1", "label": "Not fulfilled"}

Hi there! Is Relative Activity Gastric Lesion for COc1ccc2cc([C@H](C)C(=O)O)ccc2c1 [Naproxen, reference compound] below 0.2, do you know?
Not fulfilled

Hi there! Is Relative Activity Gastric Lesion for COc1ccc2cc([C@H](C)C(=O)OCC3(CO[N+](=O)[O-])COCOC3)ccc2c1 below 0.2, do you know?
Fulfilled

Hi there! Is Relative Activity Gastric Lesion for COc1ccc2cc([C@H](C)C(=O)OCC(=O)O[C@@H]3CO[C@H]4[C@H]3OC[C@H]4O[N+](=O)[O-])ccc2c1 below 0.2, do you know?
Fulfilled

Hi there! Is Relative Activity Gastric Lesion for COc1ccc2cc([C@H](C)C(=O)OCC(CO[N+](=O)[O-])(CO[N+](=O)[O-])[N+](=O)[O-])ccc2c1 below 0.2, do you know?
Not fulfilled

###

test system: Male Sprague Dawley rats, gastric hemorrhagic lesion; details: rat, in vivo, po
endpoint label: Relative Activity Gastric Lesion
Reply with just the number.

Field: example entries. Status: answers known.
{"compound": "COc1ccc2cc([C@H](C)C(=O)Oc3ccccc3C(=O)OCCO[N+](=O)[O-])ccc2c1 [Example 33]", "Relative Activity Gastric Lesion": 0.07}
{"compound": "COc1ccc2cc([C@H](C)C(=O)OC[C@H](CO[N+](=O)[O-])O[N+](=O)[O-])ccc2c1 [Example 5]", "Relative Activity Gastric Lesion": 0.21}
{"compound": "COc1ccc2cc([C@H](C)C(=O)Oc3cccc(C(=O)OCCO[N+](=O)[O-])c3)ccc2c1 [Example 36]", "Relative Activity Gastric Lesion": 0.57}
{"compound": "COc1ccc2cc(C(C)C(=O)OCCN(CCO[N+](=O)[O-])c3ccc([N+](=O)[O-])cc3)ccc2c1 (stereo not shown) [Example 4]", "Relative Activity Gastric Lesion": 0.04}

Param item = COc1ccc2cc([C@H](C)C(=O)OCC(=O)N3CCN(CCO[N+](=O)[O-])CC3)ccc2c1.Cl [Example 37] ; retrieve measured Relative Activity Gastric Lesion.
0.72

Param item = COc1ccc2cc([C@H](C)C(=O)OCC(=O)N3CCC(CO[N+](=O)[O-])CC3)ccc2c1 [Example 19] ; retrieve measured Relative Activity Gastric Lesion.
0.30

Param item = COc1ccc2cc([C@H](C)C(=O)OCC(=O)N3CCC(CCO[N+](=O)[O-])CC3)ccc2c1 [Example 31] ; retrieve measured Relative Activity Gastric Lesion.
0.06

###

endpoint label: melting point

Field: example entries. Status: answers known.
{"smiles": "COc1ccc2cc([C@H](C)C(=O)OCC(=O)COC(=O)c3ccc(CO[N+](=O)[O-])cc3)ccc2c1", "result": "105 to 107 °C"}
{"smiles": "COc1ccc2c(c1)c(CC(=O)OCC(=O)NCCO[N+](=O)[O-])c(C)n2C(=O)c1ccc(Cl)cc1", "result": "128 to 129 °C"}
{"smiles": "COc1ccc2cc([C@H](C)C(=O)OCCN(CCO[N+](=O)[O-])S(=O)(=O)c3ccc(C)cc3)ccc2c1", "result": "92 to 95 °C"}
{"smiles": "COc1ccc2cc([C@H](C)C(=O)OCC(=O)N(C)CCCO[N+](=O)[O-])ccc2c1", "result": "104 to 105 °C"}
{"smiles": "COc1ccc2cc([C@H](C)C(=O)OCC(CO[N+](=O)[O-])(CO[N+](=O)[O-])[N+](=O)[O-])ccc2c1", "result": "69 to 71 °C"}
{"smiles": "O=C(COC(=O)Cc1ccccc1Nc1c(Cl)cccc1Cl)NCCO[N+](=O)[O-]", "result": "81 to 83 °C"}

// moving on: another record for melting point
Param item = COc1ccc2cc([C@H](C)C(=O)OCCSCCO[N+](=O)[O-])ccc2c1 ; retrieve measured melting point.
33 to 37 °C

###

tested on: Male Sprague Dawley rats, gastric hemorrhagic lesion; assay: rat gastric lesion test; conditions: rat fasted 24 hours, oral gavage, lesion score (summed length, mm) three hours after dosing; ratio relative to parent NSAID (Naproxen = 1)
Reported values of Relative Activity Gastric Lesion for individual entries
Reply with just the number.

{"molecule": "COc1ccc2cc([C@H](C)C(=O)OC[C@@H](CO[N+](=O)[O-])O[N+](=O)[O-])ccc2c1 [Example 27c]", "endpoint label": "Relative Activity Gastric Lesion", "numeric value": 0.20}
{"molecule": "COc1ccc2cc([C@H](C)C(=O)OCC(=O)N(C)CC(=O)OCCCO[N+](=O)[O-])ccc2c1", "endpoint label": "Relative Activity Gastric Lesion", "numeric value": 0.19}
{"molecule": "COc1ccc2cc([C@H](C)C(=O)OCCS(=O)(=O)CCO[N+](=O)[O-])ccc2c1", "endpoint label": "Relative Activity Gastric Lesion", "numeric value": 0.11}
{"molecule": "COc1ccc2cc([C@H](C)C(=O)OCC(=O)N(C)CCCO[N+](=O)[O-])ccc2c1", "endpoint label": "Relative Activity Gastric Lesion", "numeric value": 0.02}
{"molecule": "COc1ccc2cc([C@H](C)C(=O)OCC(=O)N(C)CC(=O)OCCO[N+](=O)[O-])ccc2c1", "endpoint label": "Relative Activity Gastric Lesion", "numeric value": 0.03}

Find Relative Activity Gastric Lesion (Male Sprague Dawley rats, gastric hemorrhagic lesion) for the entry COc1ccc2cc([C@H](C)C(=O)OCC(C)(CO[N+](=O)[O-])[N+](=O)[O-])ccc2c1 (stereo partly shown)
0.18

Find Relative Activity Gastric Lesion (Male Sprague Dawley rats, gastric hemorrhagic lesion) for the entry COc1ccc2cc([C@H](C)C(=O)OCCOC(=O)NCCO[N+](=O)[O-])ccc2c1
0.15
